The reported numbers originate from patent US9113629B2.

- Tested on: Key Broadleaf Weed and Crop Species
- METHOD_SUMMARY: Post-emergent Test II herbicidal activity (Table 5)
- Assay type: in vivo
- STATED_CONDITIONS: post-emergence, 336 h; EPHHL: wild poinsettia (Euphorbia heterophylla); application rate 70 g ai/ha; 14 days after application; read-out: Visual Growth Reduction (%) 14 Days After Application, EPHHL
MEASURED_ENDPOINT: pest or weed control at 70 g/ha

MOLECULE: Nc1cc(-c2ccc(I)cc2)nc(C(=O)O)c1Cl [Compound 4]
MEASURED_ENDPOINT: pest or weed control at 70 g/ha
RESULT: 95 to 100%

MOLECULE: COC(=O)c1nc(-c2ccc(Br)cc2)nc(N)c1OC [Compound 97]
MEASURED_ENDPOINT: pest or weed control at 70 g/ha
RESULT: 95 to 100%

MOLECULE: COC(=O)c1nc(-c2ccc(F)cc2)c(F)c(N)c1Cl [Compound 204]
MEASURED_ENDPOINT: pest or weed control at 70 g/ha
RESULT: 95 to 100%

MOLECULE: Nc1cc(-c2ccc(Br)c(F)c2F)nc(C(=O)O)c1Cl [Compound 91]
MEASURED_ENDPOINT: pest or weed control at 70 g/ha
RESULT: 95 to 100%

MOLECULE: COC(=O)c1nc(-c2ccc(C(F)(F)F)c(F)c2)c(F)c(N)c1Cl [Compound 165]
MEASURED_ENDPOINT: pest or weed control at 70 g/ha
RESULT: 95 to 100%

MOLECULE: Nc1c(F)c(-c2ccc(I)cc2)nc(C(=O)O)c1Cl [Compound 45]
MEASURED_ENDPOINT: pest or weed control at 70 g/ha
RESULT: 95 to 100%

MOLECULE: Nc1c(F)c(-c2ccc(OC(F)F)cc2F)nc(C(=O)O)c1Cl [Compound 140]
MEASURED_ENDPOINT: pest or weed control at 70 g/ha
RESULT: 85 to 94%

MOLECULE: Nc1cc(-c2ccc(Br)cc2)nc(C(=O)O)c1Cl [Compound 168]
MEASURED_ENDPOINT: pest or weed control at 70 g/ha
RESULT: 95 to 100%

MOLECULE: Nc1c(F)c(-c2ccc(Br)cc2)nc(C(=O)O)c1Cl [Compound 20]
MEASURED_ENDPOINT: pest or weed control at 70 g/ha
RESULT: 95 to 100%

MOLECULE: COc1c(N)nc(-c2ccc(C(F)(F)F)c(F)c2F)nc1C(=O)O [Compound 76]
MEASURED_ENDPOINT: pest or weed control at 70 g/ha
RESULT: 95 to 100%

MOLECULE: Nc1c(F)c(-c2ccc(Br)c(F)c2F)nc(C(=O)O)c1Cl [Compound 147]
MEASURED_ENDPOINT: pest or weed control at 70 g/ha
RESULT: 95 to 100%
